Hey, just so you know, these numbers are from the kinase profiling compilation of Christmann-Franck et al. (2016).

Would you mind telling me the reported residual activity of each entry?
target: PKN2 (human) (UniProt Q16513)
Sequence (Q16513 whole entry, looked up): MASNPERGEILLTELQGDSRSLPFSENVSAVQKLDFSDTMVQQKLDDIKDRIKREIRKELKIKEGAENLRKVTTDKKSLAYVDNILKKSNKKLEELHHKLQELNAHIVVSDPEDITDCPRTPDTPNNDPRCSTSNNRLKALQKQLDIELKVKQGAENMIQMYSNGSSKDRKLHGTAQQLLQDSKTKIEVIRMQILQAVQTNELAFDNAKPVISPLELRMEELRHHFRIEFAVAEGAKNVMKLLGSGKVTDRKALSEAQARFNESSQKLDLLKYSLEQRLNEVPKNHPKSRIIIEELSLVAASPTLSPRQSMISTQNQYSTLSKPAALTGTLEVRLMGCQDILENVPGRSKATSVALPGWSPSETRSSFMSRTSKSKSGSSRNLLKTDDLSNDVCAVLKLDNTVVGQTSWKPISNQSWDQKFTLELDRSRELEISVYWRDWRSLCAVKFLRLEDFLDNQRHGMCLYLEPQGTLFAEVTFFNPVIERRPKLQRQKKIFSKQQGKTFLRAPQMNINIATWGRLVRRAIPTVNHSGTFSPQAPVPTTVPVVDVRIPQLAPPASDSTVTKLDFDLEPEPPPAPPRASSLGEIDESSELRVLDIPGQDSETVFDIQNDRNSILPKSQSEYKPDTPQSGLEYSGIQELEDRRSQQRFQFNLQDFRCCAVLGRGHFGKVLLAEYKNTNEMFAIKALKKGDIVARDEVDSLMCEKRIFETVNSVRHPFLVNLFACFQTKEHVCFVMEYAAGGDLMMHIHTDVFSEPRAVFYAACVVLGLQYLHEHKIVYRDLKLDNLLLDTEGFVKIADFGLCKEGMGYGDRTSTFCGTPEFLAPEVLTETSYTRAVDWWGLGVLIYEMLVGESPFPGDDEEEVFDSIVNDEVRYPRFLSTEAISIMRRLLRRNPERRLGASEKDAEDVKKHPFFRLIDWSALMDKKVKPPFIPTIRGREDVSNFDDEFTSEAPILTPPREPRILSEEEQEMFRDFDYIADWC
procedureDetails: radiometric filter-binding kinase assay, Kinase HotSpot
condition: compound 0.5 µM; ATP 10 µM
Numbers only, in %.

{"compoundStructure": "CN(C)c1ccc(/C=C2\\C(=O)Nc3ccccc32)cc1", "residual activity [%]": 98.9}

Would you be so kind as to report residual activity for each listed record?
1. COc1ccc2c(c1)c(C1=C(c3c[nH]c4ccccc34)C(=O)NC1=O)cn2CCCN(C)C
2. O=C1NC(=O)c2c1c1c3ccccc3[nH]c1n1cncc21
3. CC(C)(C)c1cc(C=C(C#N)C#N)cc(Br)c1O
4. Ic1cccc(CSc2nnc(-c3ccncc3)o2)c1
5. Cn1c2ccccc2c2c3c(c4c5ccccc5n(CCC#N)c4c21)CNC3=O
6. COc1ccc(C(=O)Nc2sc3c(c2C(N)=O)CCCC3)cc1OC
7. COc1cc2ncnc(Nc3ccc(Oc4ccccc4)cc3)c2cc1OC
8. CN(C)S(=O)(=O)c1ccc2c(c1)/C(=C/c1cc3c([nH]1)CCCC3)C(=O)N2

## Output
95
95.5
64.3
100
67.7
98.5
93.6
84.3

Would you be so kind as to report residual activity for each listed record?
1. Cc1cncc2cccc(S(=O)(=O)N3CCCN(C(=O)CN)C[C@H]3C)c12
2. CN(C)CCCn1cc(C2=C(c3c[nH]c4ccccc34)C(=O)NC2=O)c2ccccc21

## Output
1: 74.7; 2: 72.1
